Please go through the items and note down their median fluorescence intensity, fold over isotype control.
- assayed.target: T1, HKU1 full length Spike (human coronavirus HKU1, UniProt Q5MQD0 13-1276)
- T1 sequence: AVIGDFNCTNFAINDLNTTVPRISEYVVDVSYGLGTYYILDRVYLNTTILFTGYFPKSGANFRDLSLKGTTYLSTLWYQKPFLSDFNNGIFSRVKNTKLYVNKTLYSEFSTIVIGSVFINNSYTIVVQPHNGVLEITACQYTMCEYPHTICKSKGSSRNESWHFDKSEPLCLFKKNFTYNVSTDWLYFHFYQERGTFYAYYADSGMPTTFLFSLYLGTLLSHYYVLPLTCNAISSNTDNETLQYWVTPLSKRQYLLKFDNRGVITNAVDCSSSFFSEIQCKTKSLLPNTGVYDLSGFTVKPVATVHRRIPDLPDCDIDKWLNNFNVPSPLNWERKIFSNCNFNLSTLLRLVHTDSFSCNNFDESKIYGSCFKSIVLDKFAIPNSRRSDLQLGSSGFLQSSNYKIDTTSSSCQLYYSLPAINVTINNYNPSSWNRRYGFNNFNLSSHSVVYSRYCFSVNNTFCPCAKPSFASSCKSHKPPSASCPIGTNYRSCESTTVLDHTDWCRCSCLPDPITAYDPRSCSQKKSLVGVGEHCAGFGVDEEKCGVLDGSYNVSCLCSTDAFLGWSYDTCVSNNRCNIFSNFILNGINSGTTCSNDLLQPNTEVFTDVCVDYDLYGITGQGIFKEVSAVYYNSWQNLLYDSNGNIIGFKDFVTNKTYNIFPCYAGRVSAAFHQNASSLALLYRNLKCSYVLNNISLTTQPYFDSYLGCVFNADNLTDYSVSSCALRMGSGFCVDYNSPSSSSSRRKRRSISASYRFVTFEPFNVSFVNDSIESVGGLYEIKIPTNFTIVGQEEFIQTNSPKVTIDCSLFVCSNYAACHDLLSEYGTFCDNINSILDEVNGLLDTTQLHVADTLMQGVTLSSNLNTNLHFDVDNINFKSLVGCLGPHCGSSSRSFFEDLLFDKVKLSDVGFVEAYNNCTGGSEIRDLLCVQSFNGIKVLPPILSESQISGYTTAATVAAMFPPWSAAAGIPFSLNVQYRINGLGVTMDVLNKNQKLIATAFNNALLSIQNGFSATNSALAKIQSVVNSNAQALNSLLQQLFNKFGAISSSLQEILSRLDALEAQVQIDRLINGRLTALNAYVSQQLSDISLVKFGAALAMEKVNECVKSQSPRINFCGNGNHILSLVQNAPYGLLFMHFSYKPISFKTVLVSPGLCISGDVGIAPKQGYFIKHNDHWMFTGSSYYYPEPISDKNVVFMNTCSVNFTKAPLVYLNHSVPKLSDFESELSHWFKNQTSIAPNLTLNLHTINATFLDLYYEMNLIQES
Kindly provide the numeric value in fold over isotype only, without the unit symbol.

# query: median fluorescence intensity, fold over isotype control of entry mAb 923 (antibody, V domains shown) VH: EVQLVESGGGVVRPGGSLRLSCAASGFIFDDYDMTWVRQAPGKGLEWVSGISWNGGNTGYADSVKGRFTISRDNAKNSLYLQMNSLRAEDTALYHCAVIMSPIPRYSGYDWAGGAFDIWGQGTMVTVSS VL: SSELTQDPAVSVALGQTVRITCQGDSLRSYYASWYQQKPGQVPILVIYDKNNRPSGIPDRFSGSSSGNTASLTITGAQAEDEADYYCNSRDSSGNAVVFGGGTKLTVLG
1.42

What does the data say about its median fluorescence intensity, fold over isotype control? Entry: mAb 936 (antibody, V domains shown) VH: EVQLVESGGGLVQPGRSLTLSCAGSGFTFDDYAMHWVRQAPGKGLEWVSGISWNSGSIGYADSVKGRFTISRDNAKNSLYLQMNSLRAEDTALYYCAKDVSYDSSGYYNNAFDIWGQGTMVTVSS VL: DIQLTQSPSFLSASVGDRVTITCRASQGISSYLAWYQQKPGKAPKLLIYAASTLQSGVPSRFSGSGSGTEFTLTISSLQPEDFATYYCQQLYSYPVTFGQGTRLEIKR
1.02

Looking for the measured median fluorescence intensity, fold over isotype control of mAb 1538 (antibody, V domains shown) VH: EVQLLESGGGLVQPGGSLRLSCAASGFTFSSYAMSWVRQAPGKGLEWVSGISDSGGSTYYADYVKGRFTISRDNSKDTLYLQMNSLRAEDTAVYYCAKDRGNEYALTHYYYYAMDVWGQGTTVTVSS VL: DIQMTQSPSSLSASVGDRVTITCRASQSISSYLNWYQQKPGKAPKLLIYAAYSLQSGVPSRFSGGGSGTDFTLTISSLQPEDFATYFCQQSYSTPITFGQGTRLEIKR , can you help?
0.97
